Source listed as patent US20210228562A1.

study.target: Aiolos (protein product of gene IKZF3) (Homo sapiens, UniProt Q96SW2+Q9UKT9)
Construct: endogenous in cells; host or cells: OCI-LY10
Sequence (Q9UKT9 whole entry): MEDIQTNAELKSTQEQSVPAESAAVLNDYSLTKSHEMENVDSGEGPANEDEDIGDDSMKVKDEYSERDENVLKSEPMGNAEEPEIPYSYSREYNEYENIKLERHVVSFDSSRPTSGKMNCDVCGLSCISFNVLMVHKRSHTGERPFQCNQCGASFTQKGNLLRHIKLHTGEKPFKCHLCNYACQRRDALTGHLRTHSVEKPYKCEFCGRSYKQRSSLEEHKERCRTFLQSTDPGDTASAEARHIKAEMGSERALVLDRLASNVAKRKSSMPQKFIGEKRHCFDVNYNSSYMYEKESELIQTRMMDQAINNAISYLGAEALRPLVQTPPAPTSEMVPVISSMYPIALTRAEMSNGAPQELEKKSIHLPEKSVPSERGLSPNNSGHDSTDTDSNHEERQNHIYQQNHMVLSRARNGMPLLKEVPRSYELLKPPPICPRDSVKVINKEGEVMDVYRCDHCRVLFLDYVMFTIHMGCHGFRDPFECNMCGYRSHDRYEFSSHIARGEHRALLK
Sequence (Q96SW2 whole entry): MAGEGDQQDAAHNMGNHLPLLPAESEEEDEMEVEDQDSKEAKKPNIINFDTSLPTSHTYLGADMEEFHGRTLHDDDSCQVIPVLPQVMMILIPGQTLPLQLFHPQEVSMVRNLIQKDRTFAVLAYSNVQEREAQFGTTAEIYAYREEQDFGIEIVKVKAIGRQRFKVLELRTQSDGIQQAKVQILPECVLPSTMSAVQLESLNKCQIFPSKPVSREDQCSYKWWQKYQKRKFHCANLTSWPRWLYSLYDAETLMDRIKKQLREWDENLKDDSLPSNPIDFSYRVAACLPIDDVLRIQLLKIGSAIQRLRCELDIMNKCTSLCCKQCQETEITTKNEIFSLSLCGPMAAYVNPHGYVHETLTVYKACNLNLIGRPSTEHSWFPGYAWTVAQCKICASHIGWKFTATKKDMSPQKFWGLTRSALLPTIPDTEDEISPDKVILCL
Sequence (Q16531 whole entry partner): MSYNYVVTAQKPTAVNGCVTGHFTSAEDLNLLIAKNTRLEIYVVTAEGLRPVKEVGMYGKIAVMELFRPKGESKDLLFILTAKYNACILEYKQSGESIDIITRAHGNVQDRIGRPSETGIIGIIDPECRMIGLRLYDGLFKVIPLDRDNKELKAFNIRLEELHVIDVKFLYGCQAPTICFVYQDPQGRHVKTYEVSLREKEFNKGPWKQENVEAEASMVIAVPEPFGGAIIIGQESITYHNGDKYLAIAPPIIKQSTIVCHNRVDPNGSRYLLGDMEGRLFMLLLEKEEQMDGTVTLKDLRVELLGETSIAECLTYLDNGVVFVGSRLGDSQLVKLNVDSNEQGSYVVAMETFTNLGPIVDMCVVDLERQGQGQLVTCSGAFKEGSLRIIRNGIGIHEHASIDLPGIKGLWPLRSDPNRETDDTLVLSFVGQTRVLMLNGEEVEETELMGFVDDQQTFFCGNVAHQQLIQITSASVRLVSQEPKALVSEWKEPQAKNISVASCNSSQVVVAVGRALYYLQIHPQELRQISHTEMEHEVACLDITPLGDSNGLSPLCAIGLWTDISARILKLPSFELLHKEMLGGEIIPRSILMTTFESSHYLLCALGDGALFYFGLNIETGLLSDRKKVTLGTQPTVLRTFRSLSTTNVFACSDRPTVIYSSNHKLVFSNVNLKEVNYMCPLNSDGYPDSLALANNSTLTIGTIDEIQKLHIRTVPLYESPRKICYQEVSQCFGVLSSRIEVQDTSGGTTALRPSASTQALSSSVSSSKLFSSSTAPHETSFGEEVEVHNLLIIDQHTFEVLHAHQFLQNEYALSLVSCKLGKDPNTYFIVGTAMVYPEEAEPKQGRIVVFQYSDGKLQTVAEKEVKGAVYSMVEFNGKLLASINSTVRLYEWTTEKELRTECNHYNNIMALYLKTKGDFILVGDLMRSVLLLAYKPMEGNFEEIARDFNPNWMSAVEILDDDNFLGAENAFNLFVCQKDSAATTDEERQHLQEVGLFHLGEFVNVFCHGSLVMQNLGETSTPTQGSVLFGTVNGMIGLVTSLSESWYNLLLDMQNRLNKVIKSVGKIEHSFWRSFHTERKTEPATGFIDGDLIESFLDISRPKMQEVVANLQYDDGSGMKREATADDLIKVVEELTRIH
test.summary: Quantification of Aiolos degradation in OCI-LY10 cells (quantitative immunoblotting)
Format: cell-based
condition.notes: 6 h treatment
Provide the recorded DC50 for the entries that follow.

compound	study.target	result
CN(C[C@H]1CC[C@H](c2nc3cc(C(C)(C)O)c(NC(=O)c4cccc(C(F)(F)F)n4)cc3s2)CC1)[C@H]1CC[C@H](CCNc2cccc3c2C(=O)N(C2CCC(=O)NC2=O)C3=O)CC1 (stereo partly drawn)	Aiolos (protein product of gene IKZF3) (Homo sapiens, UniProt Q96SW2+Q9UKT9)	< 0.05 µM

Provide the reported DC50 of each entry below, same order.
1. COc1cc2nc([C@H]3CC[C@H](CN4CC5(CCC(CNc6cccc7c6C(=O)N(C6CCC(=O)NC6=O)C7=O)CC5)C4)CC3)sc2cc1NC(=O)c1cccc(C(F)(F)F)n1 (stereo partly drawn)
2. CC(C)(O)c1cc2nc([C@H]3CC[C@H](CN4CC5(CC(CCNc6cccc7c6C(=O)N(C6CCC(=O)NC6=O)C7=O)C5)C4)CC3)sc2cc1-n1ccc2ccccc2c1=O (stereo partly drawn)

0.1 to 0.5 µM
< 0.05 µM
